Biological target: Fc-fusion protein receptor ectodomain of BMPR-IB
Assay: ratio KD(IA):KD(IB) from Biacore, relative to wild type
Quantity: fold higher IB affinity over IA compared to WT (fold)

[A] recombinant human GDF-5 mutant R399M (ligand) APLATRQGKRPSKNLKAMCSRKALHVNFKDMGWDDWIIAPLEYEAFHCEGLCEFPLRSHLEPTNHAVIQTLMNSMDPESTPPTCCVPTRLSPISILFIDSANNVVYKQYEDMVVESCGCR
[B] recombinant human GDF-5 wild type (ligand) APLATRQGKRPSKNLKARCSRKALHVNFKDMGWDDWIIAPLEYEAFHCEGLCEFPLRSHLEPTNHAVIQTLMNSMDPESTPPTACVPTRLSPISILFIDSANNVVYKQYEDMVVESCGCR
[C] human GDF-5 mutant S439K (ligand) APLATRQGKRPSKNLKARCSRKALHVNFKDMGWDDWIIAPLEYEAFHCEGLCEFPLRKHLEPTNHAVIQTLMNSMDPESTPPTCCVPTRLSPISILFIDSANNVVYKQYEDMVVESCGCR
Problem: Hey, quick one: sort these by fold higher IB affinity over IA compared to WT, largest value first please. Put the labels in the order asked and list them.
Solution: C, A, B
(C: 19.7 fold, A: 1.8 fold, B: 1 fold)
